Biological target: HLA-B*15:17
Experiment: IEDB peptide-MHC binding, purified MHC/direct/fluorescence; filed as Kd, often an IC50 or EC50 that approximates it; bounds were set here for any values at or beyond the usual limits of such assays
Settings: source organism: West Nile virus
measured endpoint: pKd
Please express pKd as -log10 of the molar concentration.

Look up and report measured pKd for this entry: `RVLEMVEDW` 7.36

* * *

Target: HLA-A*02:03
Assay: IEDB peptide-MHC binding, purified MHC/competitive/radioactivity; filed as Kd, often an IC50 or EC50 that approximates it; bounds were set here for any values at or beyond the usual limits of such assays
Conditions: source organism: Vaccinia virus WR
# pKd annotations
// returns pKd (minus log10 of molar concentration), number only

DTSNNIAEYI ... 5.04
SVDVDIYDAV ... 8.04
IALALEQYGI ... 5.31
EVVMAYVGIK ... 4.80
NIKPVIVPDI ... 6.13

Identify measured pKd associated with `IIRVTTELNI` 5.06

Recall and state the measured pKd for `LMIFISSFL` . 9.89

Tell me its pKd given `TTFITVLTSV` as the entry. 7.79

Output measured pKd for this item: `ITTLLNETA` 6.03

Give recorded pKd. `EILRNYLRL` 5.68

Supply measured pKd of `LVDKEDTDIV` in your reply. 5.77
